B1: CPEB3 Ribozyme (parent)
chain: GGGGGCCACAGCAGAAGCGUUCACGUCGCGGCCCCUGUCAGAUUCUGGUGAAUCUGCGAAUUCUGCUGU

- Variants of: B1
- Experimental details: self-cleavage, relative activity (ratio to wild type); higher = more cleavage; co-transcriptional
Metric name: self-cleavage
Just the number.

Mutation string	self-cleavage
G1C C29U	0.105

Next variant, self-cleavage to be filled in.
Exercise: Value lookup for self-cleavage; key = C18U C66A
Solution: 0.297
